Target: Histone-lysine N-methyltransferase EHMT2 (Homo sapiens, UniProt Q96KQ7)
Sequence (Q96KQ7 whole entry): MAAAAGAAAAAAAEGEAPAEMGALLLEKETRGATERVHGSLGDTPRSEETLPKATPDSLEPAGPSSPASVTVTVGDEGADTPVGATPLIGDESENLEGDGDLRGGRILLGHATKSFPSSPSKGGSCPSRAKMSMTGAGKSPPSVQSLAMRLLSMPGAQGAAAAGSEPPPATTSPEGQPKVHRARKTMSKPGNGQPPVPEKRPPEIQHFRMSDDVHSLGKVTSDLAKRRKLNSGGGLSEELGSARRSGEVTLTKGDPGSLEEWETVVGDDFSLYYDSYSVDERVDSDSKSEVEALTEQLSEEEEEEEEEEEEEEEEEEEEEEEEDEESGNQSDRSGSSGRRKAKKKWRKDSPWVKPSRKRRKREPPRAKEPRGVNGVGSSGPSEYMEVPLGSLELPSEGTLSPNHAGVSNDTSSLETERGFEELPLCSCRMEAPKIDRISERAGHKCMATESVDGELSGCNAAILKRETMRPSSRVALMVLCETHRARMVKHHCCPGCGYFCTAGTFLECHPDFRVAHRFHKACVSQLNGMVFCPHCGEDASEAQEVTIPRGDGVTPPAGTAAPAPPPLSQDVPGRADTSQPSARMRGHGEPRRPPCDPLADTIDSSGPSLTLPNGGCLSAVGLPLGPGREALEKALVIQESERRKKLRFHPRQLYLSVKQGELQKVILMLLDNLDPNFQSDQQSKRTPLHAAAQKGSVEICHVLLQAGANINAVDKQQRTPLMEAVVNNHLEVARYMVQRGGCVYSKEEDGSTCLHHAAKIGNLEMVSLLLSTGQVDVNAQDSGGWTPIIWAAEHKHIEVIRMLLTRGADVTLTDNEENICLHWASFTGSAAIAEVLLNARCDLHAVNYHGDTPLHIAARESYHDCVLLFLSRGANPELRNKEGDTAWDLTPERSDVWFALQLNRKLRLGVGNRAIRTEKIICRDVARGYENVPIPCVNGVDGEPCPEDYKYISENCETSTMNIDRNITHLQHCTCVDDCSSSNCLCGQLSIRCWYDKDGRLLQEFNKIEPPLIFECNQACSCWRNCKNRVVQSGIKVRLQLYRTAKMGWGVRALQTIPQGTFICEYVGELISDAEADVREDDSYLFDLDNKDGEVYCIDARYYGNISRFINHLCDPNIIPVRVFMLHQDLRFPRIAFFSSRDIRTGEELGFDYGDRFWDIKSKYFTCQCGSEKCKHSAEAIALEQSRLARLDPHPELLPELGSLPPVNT
Assay: Inhibition of G9a (unknown origin)

SUBSTANCE_SMILES | IC50 (nM)
Cc1c(C(=O)N[C@H](CCC2CC2)C(=O)Nc2ccc(C#N)cc2)[nH]c2c1C(=O)CC(C)(C)C2 | 27
COc1cc2c(cc1C1=CCN(C)CCC1)N=C(N)C21CCC1 | 12.6
